Hey, just so you know, these numbers are from patent US6916472B2.

assayed-target: rabbit serum PON3 (Oryctolagus cuniculus)
Construct: from tissue; host or cells: rabbit serum
Sequence (Q9BGN0 2-354 limits assumed): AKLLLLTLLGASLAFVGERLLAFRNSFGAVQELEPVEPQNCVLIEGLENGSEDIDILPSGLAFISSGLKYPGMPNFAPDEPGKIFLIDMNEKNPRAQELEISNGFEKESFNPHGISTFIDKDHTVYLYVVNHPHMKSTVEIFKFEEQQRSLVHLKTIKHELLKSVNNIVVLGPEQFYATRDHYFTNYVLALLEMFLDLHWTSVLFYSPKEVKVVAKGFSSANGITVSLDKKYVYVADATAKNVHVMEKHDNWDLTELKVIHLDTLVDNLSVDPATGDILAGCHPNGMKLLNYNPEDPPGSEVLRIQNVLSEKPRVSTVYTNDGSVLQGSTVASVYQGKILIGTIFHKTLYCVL
assay-remarks: Hydrolytic activity of purified rabbit serum PON3 with paraoxon, aromatic esters and lactones
Assay type: biochemical
condition: purified rabbit serum PON3; 25° C.
assay-readout: PON3 (rate of hydrolysis of substrate) (µmol/min/mg)
Numbers only, in µmol/min/mg.

Known PON3 (rate of hydrolysis of substrate) results, listed for orientation:
compound="O=C1CCC(c2ccccc2)O1 (stereo not drawn)" assay_readout="PON3 (rate of hydrolysis of substrate)" quantity_unit=µmol/min/mg readout_value=20.4
compound="CCCCCC1CCCC(=O)O1 (stereo not drawn)" assay_readout="PON3 (rate of hydrolysis of substrate)" quantity_unit=µmol/min/mg readout_value=73
compound="CCCCC1CCCC(=O)O1 (stereo not drawn)" assay_readout="PON3 (rate of hydrolysis of substrate)" quantity_unit=µmol/min/mg readout_value=44
compound="CCCCC1CCC(=O)O1 (stereo not drawn)" assay_readout="PON3 (rate of hydrolysis of substrate)" quantity_unit=µmol/min/mg readout_value=29
compound=CC1=CCC(=O)O1 assay_readout="PON3 (rate of hydrolysis of substrate)" quantity_unit=µmol/min/mg readout_value=3.4

Batch: PON3 (rate of hydrolysis of substrate) for all items listed.
1. CCCCCC1CCC(=O)O1 (stereo not drawn)
2. CCCCCCCC1CCCC(=O)O1 (stereo not drawn)
3. O=C1Cc2ccccc2O1
4. CCCCC1OC(=O)CC1C (stereo not drawn)
5. CCCC1CCC(=O)O1 (stereo not drawn)
6. CCCCCCCC1CCC(=O)O1 (stereo not drawn)
7. CC(=O)Oc1ccc2ccccc2c1 [β-Naphtyl Acetate]
8. CCCCCCC1CCC(=O)O1 (stereo not drawn)

A)
1: 60; 2: 98.2; 3: 32.4; 4: 3; 5: 8.6; 6: 44.2; 7: 4.6; 8: 50.2

Batch: PON3 (rate of hydrolysis of substrate) for all items listed.
1. CC1CCCC(=O)O1 (stereo not drawn)
2. CC(=O)Oc1ccccc1 [Phenyl Acetate]

A)
[3.6, 1.0]
